Study the reported IC50 values for IRAK1 (Homo sapiens, UniProt P51617) given below; they originate from different publications.

Solved cases (4 shown):
Cn1cc(-c2cccc(-c3ncc(-c4cnn(C)c4)c(NCCCNS(C)(=O)=O)n3)c2)cn1	100 to 1000 nM
c1cc2cn[nH]c2cc1-c1cnc2ccc(NC3CCOCC3)nn12	300 nM
Cn1cc(-c2cccc(-c3ncc(-c4cnn(C)c4)c(NC[C@@H](O)CO)n3)c2)cn1	> 5000 nM
C=CC(=O)N1CC(c2nc(-c3ccc(NC(=O)c4cccc(-c5[nH]ncc5C)n4)nc3)no2)CC(F)(F)C1 (stereo not shown)	3.98 nM

(Q) I'm curious: which IC50 was measured for COc1cc2ncc(-c3cccc(N[C@H]4CNC[C@@H]4C)n3)n2nc1C1CC1 tested on IRAK1 (Homo sapiens, UniProt P51617)?
(A) 375 nM

(Q) Param item: Cn1cc(-c2cccc(-c3ncc(-c4ccn(C)n4)c(NCCN4CCOC4=O)n3)c2)cn1
(A) > 5000 nM

(Q) Param item: Cn1cc(-c2cccc(-c3ncc(-c4cnn(C)c4)c(NC4CC(F)(F)C4)n3)c2)cn1
(A) 100 to 1000 nM

(Q) Param item: CO[C@H]1CNC[C@@H]1Nc1cccc(-c2cnc3ccc(C4CC4)nn23)n1
(A) 5860 nM

(Q) Param item: Cn1cc(-c2ccc3ncc(-c4cccc(N[C@@H]5CCCNC5)n4)n3n2)cn1
(A) 226 nM

(Q) Param item: Cn1cc(-c2cccc(-c3ncc(-c4cnn(C)c4)c(N4CCCC(CN)C4)n3)c2)cn1 (stereo not shown)
(A) > 5000 nM

(Q) Param item: Cn1cc(-c2cccc(-c3ncc(-c4cnn(C)c4)c(N[C@@H]4CNC[C@@H](F)C4)n3)c2)cn1
(A) 1000 to 5000 nM

(Q) Param item: CN(C)C/C=C/C(=O)Nc1ccc(C(=O)Nc2cccc(Nc3ncc(Cl)c(-c4c[nH]c5ccccc45)n3)c2)cc1
(A) < 100 nM

(Q) Param item: Cn1cc(-c2cccc(-c3ncc(-c4cnn(C)c4)c(N[C@H]4CCNC4)n3)c2)cn1
(A) > 5000 nM

(Q) Param item: Cn1cc(-c2cccc(-c3ncc(-c4cnn(C)c4)c(NCC4CCNCC4)n3)c2)cn1
(A) 100 to 1000 nM

(Q) Param item: C=CC(=O)N1CCC[C@H](c2nc(-c3ccc(NC(=O)c4cccc(-c5ccn[nH]5)n4)cc3)no2)C1
(A) 36.6 nM

---

Study the reported IC50 values for IRAK1 (Homo sapiens, UniProt P51617) given below; they originate from different publications.

Solved cases (3 shown):
F[C@H]1CNC[C@@H]1Nc1cccc(-c2cnc3ccc(NC4CCCCC4)nn23)n1	1640 nM
Cn1cc(-c2cccc(-c3ncc(-c4ccn(C)n4)c(NCC4CC(F)(F)C4)n3)c2)cn1	1000 to 5000 nM
FC(F)n1cc(-c2ccc3ncc(-c4cccc(N[C@H]5CNC[C@@H]5C(F)(F)F)n4)n3n2)cn1	2060 nM

(Q) I'm curious: which IC50 was measured for O=C1Nc2nc3ccccc3n2Cc2ccc(F)c(c2)-c2ccc(=O)n(n2)Cc2cccc1c2 tested on IRAK1 (Homo sapiens, UniProt P51617)?
(A) < 100 nM

(Q) Param item: Cn1cc(-c2cccc(-c3ncc(-c4cnn(C)c4)c(N[C@H]4CCCC[C@@H](O)[C@H]4O)n3)c2)cn1 (stereo in doubt)
(A) 100 to 1000 nM

(Q) Param item: Cn1cc(-c2cccc(-c3ncc(-c4cnn(C)c4)c(N[C@H]4CC[C@H](C(=O)O)CC4)n3)c2)cn1
(A) > 5000 nM

(Q) Param item: Cc1nnc(-c2cnc(-c3cccc(-c4cnn(C)c4)c3)nc2NCC(O)C(F)(F)F)s1 (centres unmarked)
(A) 100 to 1000 nM

(Q) Param item: c1cc(NC2CCC3(CNC3)C2)nc(-c2cnc3ccc(-c4cn[nH]c4)nn23)c1 (centres unmarked)
(A) 37 nM

(Q) Param item: Cn1cc(-c2cccc(-c3ncc(-c4cnn(C)c4)c(NC45CC(NS(C)(=O)=O)(C4)C5)n3)c2)cn1
(A) < 100 nM

(Q) Param item: CC(C)n1cc(-c2ccc3ncc(-c4cccc(NC5CCC6(CNC6)C5)n4)n3n2)cn1 (centres unmarked)
(A) 2180 nM

(Q) Param item: CCCn1cc(-c2cnc(N)c(-c3nc4ccccc4[nH]3)c2)cn1
(A) 100 to 10000 nM

(Q) Param item: Cn1cc(-c2cccc(-c3ncc(-c4ccn(C)n4)c(NCC4(O)CCNCC4(C)C)n3)c2)cn1 (centres unmarked)
(A) 1000 to 5000 nM

(Q) Param item: Cn1cc(-c2cnc(N)c(-c3nc4cccc(CO)c4[nH]3)c2)cn1
(A) 100 to 10000 nM
